# testProtocol: soluble fraction after stress (log2 fold change); higher = more stays soluble; pooled small domains, quantitative proteomics
# particulars: stress: pH 4
In this section we review reported soluble fraction (log2) values for a set of sequences.
Please give only the number in your answer, with no unit.

Example cases with answers are listed next.
Prompt: Name the recorded soluble fraction (log2) for `HMANLAQITKTNAVALALKDVGAYNSEDLMKFIDLDKVVLGEDGKPQLEDTINSLKESSPYLFQ` .
Completion: -0.843

Prompt: Name the recorded soluble fraction (log2) for `HMNYKDQISRYFQQAFHIYPKYQTMKNEEGNFTSKIFKDDKMIIEGVGKSKKKAEQDVSRKALIHFNVL` .
Completion: 0.398

In the following, a different sequence is considered.
Prompt: Name the recorded soluble fraction (log2) for `HMATPRLAIVPQSAAGRRLDAVLAELFPEYSRSRLSAWIKTGDVMVDGAAPRGRDPVRGGEEITLTAVQ` .
Completion: 0.113

###

# testProtocol: soluble fraction after stress (log2 fold change); higher = more stays soluble; pooled small domains, quantitative proteomics
# particulars: stress: pH 4
propertyLabel: soluble fraction (log2)

Example cases with answers are listed next.
Prompt: Name the recorded soluble fraction (log2) for `HMGETRWTYDDFGNILTEKAAPYSATEFLGKTYTYDTDNRYLKTVTDALGRTTTTLSYDKYGNPLSVMD` .
Completion: -0.357

Prompt: Name the recorded soluble fraction (log2) for `HMSQDPLETYYPQWSAAVKQSNPDAEIIRDTDGKYYVEGMTKNRVAVIYENPHLVRLVNATTNVHVE` .
Completion: 0.238

Prompt: Name the recorded soluble fraction (log2) for `HMTGNWRQMHKVKSKETIYGIAKEYGITVDELTKANPGMEAPGYTLKKGDYIFIPYATADANV` .
Completion: 0.0315

Prompt: Name the recorded soluble fraction (log2) for `HMSHRVGDVVELTAVRMNDQGVFLDAGTGNTSDDILLHKHQMTSPVSVGDKVKVQLYLDAKNRITASMKL` .
Completion: -0.199

Prompt: Name the recorded soluble fraction (log2) for `HMLPKLAEEYAIMEIRGKGENLTAKLINKGGDSFMVRNGTVLQTGHRIDEITQTYVRAEINGMKDYLYFA` .
Completion: -1.44

Prompt: Name the recorded soluble fraction (log2) for `HMEPADALVAALVARGVSPSTARITVKQYPATRIQPQLEVFDYLVAQKDPKVSRNPPGFLLSAIRGEYA` .
Completion: 0.0562

Prompt: Name the recorded soluble fraction (log2) for `HMEPVFSDPARQTLYQEVMELPAKYRVPLYLYYYEGYKVDEVGELLGLNASTVQTRLARARAKLKIQL` .
Completion: -0.17

Prompt: Name the recorded soluble fraction (log2) for `HMTDTSFPRLGAPEEELLSFLAKWEIDAEDAHYTKFSLYYQSTGKMMRDWKATWRAWKERQSELNAQR` .
Completion: -1.05

***
Prompt: Name the recorded soluble fraction (log2) for `HMHSGFHSAILDVDRAVKEGKTLYEALNKYPYIFDETFRSLVRAGEASGELPSILSKLALYLEEQSK` .
Completion: -1.04

Prompt: Name the recorded soluble fraction (log2) for `HMNLEIGAIIKSLRAKHKYTQEQLSAFLGVTPQAVSRWEAGNGYPDIELLPAIARFFEVSTDELLGL` .
Completion: -1.32

Prompt: Name the recorded soluble fraction (log2) for `HMQISSSEVLEKVVDEILSANPKSIEDYKNGKLQAAGFLMGQVMKATKGQANPAVAKELIEAKLKD` .
Completion: 0.124
